system under test: CLK1 (MmCLK1) (Mus musculus, UniProt P22518)
Sequence (P22518 whole entry): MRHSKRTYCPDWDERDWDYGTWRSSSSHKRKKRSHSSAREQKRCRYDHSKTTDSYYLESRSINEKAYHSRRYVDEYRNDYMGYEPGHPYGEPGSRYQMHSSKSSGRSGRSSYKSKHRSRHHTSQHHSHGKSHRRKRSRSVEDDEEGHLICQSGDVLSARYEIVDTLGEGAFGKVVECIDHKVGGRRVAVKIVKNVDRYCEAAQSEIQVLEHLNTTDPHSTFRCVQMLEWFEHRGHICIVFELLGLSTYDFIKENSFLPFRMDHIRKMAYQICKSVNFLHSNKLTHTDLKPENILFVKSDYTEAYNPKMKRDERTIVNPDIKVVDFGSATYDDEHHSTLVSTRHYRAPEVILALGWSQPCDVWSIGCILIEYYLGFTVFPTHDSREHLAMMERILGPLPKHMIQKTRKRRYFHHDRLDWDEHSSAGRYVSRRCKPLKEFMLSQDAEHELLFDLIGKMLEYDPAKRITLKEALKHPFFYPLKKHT
test method notes: biochemical
study conditions: read-out: % of control remaining
So I've got a bunch of compounds here, and I need their remaining activity at 10 µM values.
The figure you give is taken to be in %; do not add the unit.

## Input Requested field: remaining activity at 10 µM. Item: O=C(NC[C@@H]1Cc2cc(-c3cncnc3)ccc2O1)c1scc2c1CCCC2 [compound 47, #47]
## Output 109

## Input Another compound to look at: Cc1cccc(OCC(=O)Nc2ccc3oc(-c4cccnc4)nc3c2)c1C [compound 45, #45]
## Output 143

## Input Another compound to look at: Cc1ccc(NC(=O)Nc2ccc(Cc3ccncc3)cc2)cc1C [compound 82, #82]
## Output 81

## Input Another compound to look at: O=C(NC[C@H]1CC(=O)N(c2ccc3c(c2)OCO3)C1)Nc1cccc(C(F)(F)F)c1 [compound 75, #75]
## Output 99

## Input Another compound to look at: O=C(Nc1ccc(Cc2ccncc2)cc1)Nc1cccc2ccccc12 [compound 22, #22]
## Output 151

## Input Another compound to look at: O=C(CSc1ccc(-c2cccnc2)nn1)Nc1cccc(C(F)(F)F)c1 [compound 9, #9]
## Output 111

---

system under test: CDK8-cyclin C (HsCDK8/Cyclin C) (Homo sapiens)
Sequence (P49336 whole entry): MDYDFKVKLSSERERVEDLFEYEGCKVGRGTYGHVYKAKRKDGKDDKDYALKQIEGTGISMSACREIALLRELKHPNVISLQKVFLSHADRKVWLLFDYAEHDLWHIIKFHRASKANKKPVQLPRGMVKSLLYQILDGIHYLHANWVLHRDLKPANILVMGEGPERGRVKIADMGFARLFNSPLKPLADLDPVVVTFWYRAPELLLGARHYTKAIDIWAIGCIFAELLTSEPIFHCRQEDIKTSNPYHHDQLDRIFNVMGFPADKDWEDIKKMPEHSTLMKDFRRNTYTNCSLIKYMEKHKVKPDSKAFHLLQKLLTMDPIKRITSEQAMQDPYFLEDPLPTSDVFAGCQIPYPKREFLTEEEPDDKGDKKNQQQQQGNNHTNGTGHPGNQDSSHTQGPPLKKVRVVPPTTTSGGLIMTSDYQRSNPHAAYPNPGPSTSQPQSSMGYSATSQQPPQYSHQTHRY
Sequence (P24863 whole entry partner): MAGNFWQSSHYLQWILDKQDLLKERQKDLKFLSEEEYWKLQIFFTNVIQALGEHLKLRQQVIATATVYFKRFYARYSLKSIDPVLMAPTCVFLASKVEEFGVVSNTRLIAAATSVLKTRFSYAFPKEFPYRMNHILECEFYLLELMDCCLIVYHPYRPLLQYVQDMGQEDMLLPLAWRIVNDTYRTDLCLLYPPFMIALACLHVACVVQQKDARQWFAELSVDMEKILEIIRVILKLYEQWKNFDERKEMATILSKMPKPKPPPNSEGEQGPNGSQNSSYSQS
test method notes: biochemical
study conditions: read-out: % of control remaining
# strict inequality: remaining activity at 10 µM < 10% yields true, everything else yields false

## Input # check: remaining activity at 10 µM < 10% for `O=C(NC[C@H]1CC(=O)N(c2ccc3c(c2)OCO3)C1)Nc1cccc(C(F)(F)F)c1`
## Output true

## Input Another molecule to look at: `O=C(NC[C@@H]1Cc2cc(-c3cncnc3)ccc2O1)c1scc2c1CCCC2`
## Output true

## Input Another molecule to look at: `O=C(Nc1ccc2oc(-c3cccnc3)nc2c1)c1ncoc1-c1ccccc1Cl`
## Output false

## Input Another molecule to look at: `N#Cc1ccc2ncnc(NCCc3ccccc3)c2c1`
## Output false

## Input Another molecule to look at: `Cc1ccc(NC(=O)Nc2ccc(Cc3ccncc3)cc2)cc1C`
## Output false

## Input Another molecule to look at: `Cc1cccc(OCC(=O)Nc2ccc3oc(-c4cccnc4)nc3c2)c1C`
## Output true

---

system under test: PIM1 (Homo sapiens)
Sequence (P11309 whole entry): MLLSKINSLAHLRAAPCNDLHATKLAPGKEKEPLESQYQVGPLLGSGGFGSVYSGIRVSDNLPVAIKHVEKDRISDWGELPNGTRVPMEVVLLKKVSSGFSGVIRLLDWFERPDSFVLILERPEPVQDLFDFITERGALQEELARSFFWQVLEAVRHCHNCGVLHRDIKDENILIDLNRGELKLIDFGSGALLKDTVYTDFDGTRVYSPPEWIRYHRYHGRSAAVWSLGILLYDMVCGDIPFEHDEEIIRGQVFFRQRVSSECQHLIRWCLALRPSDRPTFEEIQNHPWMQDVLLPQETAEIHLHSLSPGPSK
test method notes: biochemical
study conditions: read-out: % of control remaining
So I've got a bunch of molecules here, and I need their remaining activity at 10 µM values.
The figure you give is taken to be in %; do not add the unit.

## Input I'm curious: which remaining activity at 10 µM was measured for `O=C(Nc1ccc2oc(-c3cccnc3)nc2c1)c1ncoc1-c1ccccc1Cl` tested on PIM1 (Homo sapiens)?
## Output 109

## Input Another molecule to look at: `Cc1ccc(NC(=O)Nc2ccc(Cc3ccncc3)cc2)cc1C`
## Output 89

## Input Another molecule to look at: `N#Cc1ccc2ncnc(NCCc3ccccc3)c2c1`
## Output 78

## Input Another molecule to look at: `O=C(CSc1ccc(-c2cccnc2)nn1)Nc1cccc(C(F)(F)F)c1`
## Output 71

## Input Another molecule to look at: `Cc1cccc(OCC(=O)Nc2ccc3oc(-c4cccnc4)nc3c2)c1C`
## Output 127
